- Test system: Wolbachia pipientis
- METHOD NOTES: Anti-Wolbachia Cell-Based Screen
- Type: functional
- Parameters: scale not given: in the data most compounds retested in dose-response had high values
- COND: 5 µM
In all, about 48,000 compounds went through this assay and about 13,000 (27%) showed an effect of 50% or more. The list shows a part of the results.
So I've got a bunch of compounds here, and I need their Percent Effect values.
In your response, the unit should come after the numeric value.

Worked cases, Percent Effect given:
O=C(NCc1ccccn1)NC1CCOc2ccccc21 (stereo not given) : 10.12%
CC(C)Oc1ncccc1CNC(=O)N1CCOCC1 : 12.39%
CNc1ncccc1CN1CCCCC1c1ccnc(N)n1 (stereo not given) : 116.5%
Cc1cc(CC(C)NC(=O)COc2ccc(F)cc2F)[nH]n1 (stereo not given) : 17.04%
CNc1ncccc1CN1CCCCC1c1cc(C)n2ccnc2n1 (stereo not given) : 94%

// each compound listed below needs its Percent Effect
1. Cc1ccccc1CSc1nc(N)cc(N2CC[C@@H](O)C2)n1
2. Fc1cccnc1CN1CCCCC1c1ccn2ccnc2n1 (stereo not given)
3. Cc1cc(C)n(CC2CN(CC(=O)NC3CCOCC3)CCO2)n1 (stereo not given)
4. O=C1CC(c2ccsc2)c2sc(C(=O)O)c(-c3ccccc3)c2N1 (stereo not given)
5. CNc1ncccc1CN1CCC1c1cc(N)nc(C)n1 (stereo not given)
6. Nc1ncc(CN2C[C@H](C3CC3)[C@@H](N)C2)cn1
7. CC(OCC1CC1)C(=O)NCc1ccc(Cn2ccnc2)cc1 (stereo not given)

Data returned:
["2.755%", "6.686%", "89.87%", "15.35%", "93.93%", "-6.254%", "-1.593%"]

###

Field: Percent Effect. Provide a value for each of the compounds that follow.
- Test system: Wolbachia pipientis
- METHOD NOTES: Anti-Wolbachia Cell-Based Screen
- Type: functional
- Parameters: scale not given: in the data most compounds retested in dose-response had high values
- COND: 5 µM
About 13,000 (27%) of roughly 48,000 compounds showed an effect of 50% or more. Some of the results follow.
Answers are plain numbers, in %.

Here's what some known entries look like.
Clc1cc(NCc2nccs2)nc2[nH]ccc12 : 109.6
Fc1ccc(NCc2ncc[nH]2)cc1Br : -22.04
Cc1ncnc2c1CCN(C(=O)CN(C)C)CC2.O=C(O)C(F)(F)F : -6.566
COc1ncc(-c2cc(NCCN(C)C)nc3[nH]ccc23)c(OC)n1 : -3.716
O=C(Nc1ccccc1)c1ccc(NCc2ccncc2)nn1 : -22.46

Could you tell me Percent Effect for each of these compounds? They are listed below.
1. CC(=O)N1CCN(CC(=O)NCCCN(C)c2ccccc2)CC1
2. CCc1ncnc2c1CCN(CC(=O)N(C)C)CC2.O=C(O)C(F)(F)F

Data returned:
-6.128
107.9

###

Record form. Attribute: Percent Effect. Fill in for each entry.
- Test system: Wolbachia pipientis
- METHOD NOTES: Anti-Wolbachia Cell-Based Screen
- Assay type: functional
- Parameters: scale not given: in the data most compounds retested in dose-response had high values
- COND: 5 µM
The whole screen tested about 48,000 compounds, of which about 13,000 (27%) showed an effect of 50% or more. Some of the results follow.
Give bare numbers, in %.

Here are 7 compounds together with their reported answers.
O=C(CC1CC1)N[C@@H]1CN(Cc2ccoc2)C[C@@H]2CCCO[C@@H]21 : -6.81
CS(=O)(=O)N[C@@H]1CN(Cc2ccco2)C[C@@H]2CCCO[C@@H]21.O=C(O)C(F)(F)F : 1.285
CCC1=N[C@@]2(CC[C@@H]3CN(C(=O)NC(C)C)C[C@@H]32)C(=O)N1C : -5.226
CCC1=N[C@@]2(CC[C@@H]3CN(Cc4ccc(F)cc4)C[C@@H]32)C(=O)N1C.O=C(O)C(F)(F)F : 103.7
CCC1=N[C@@]2(CC[C@@H]3CN(Cc4ccccc4F)C[C@@H]32)C(=O)N1CC.O=C(O)C(F)(F)F : -10.67
CCC1=N[C@@]2(CC[C@@H]3CN(CC(=O)N(C)C)C[C@@H]32)C(=O)N1CC1CC1.O=C(O)C(F)(F)F : -4.089
Cc1oncc1C(=O)N[C@@H]1CN(Cc2ccoc2)C[C@@H]2CCCO[C@@H]21.O=C(O)C(F)(F)F : 105.5

Now consider a different compound.
Data request: Give its Percent Effect value. Item: CCC1=N[C@@]2(CC[C@@H]3CN(Cc4ccccc4C)C[C@@H]32)C(=O)N1.O=C(O)C(F)(F)F
Data returned: -9.167
